The origin of these recorded values is PubChem BioAssay AID1456.

- SYSTEM: Solute carrier family 12 member 5 (Homo sapiens)
- PROTOCOL: modulation of human KCC2 ion transport – cell-based, HEK293 KCC2, FluoZin-2 fluorescence, MLSMR, primary screen (AID 1456);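 also: slope of fluorescence scaled to starting intensity during 10 to 20 s after thallium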
- MEASUREMENT_CONDITIONS: KCC2 cells, thallium flux FluoZin-2 fluorescence; at 10 µM
The campaign covered roughly 190,000 compounds. About 4,100 (2.2%) were called active.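 The calls were made as follows: active = thallium flux slope and its plate-corrected score both differing from the plate sample mean at a set confidence after two filtering rounds, in either direction; inactive = the rest.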 For the sample, actives were picked, then their nearest neighbours and some compounds at random.
Choose one outcome from this list and give only that: active, inactive

Use these answered entries as a reference point.
Field: outcome | Entry: O=C1c2cccc3c([N+](=O)[O-])ccc(c23)C(=O)N1CC1CCCO1 (stereo unspecified)
inactive

Field: outcome | Entry: O=C(CN1CCCC1)N1CCN(c2ccccc2)CC1
inactive

Field: outcome | Entry: O=C(NC(CC(=O)N1CCN(c2ccccc2)CC1)c1ccccc1)c1ccccc1Cl (stereo unspecified)
active

Field: outcome | Entry: C=CCNC(=O)CSc1nc2scc(-c3ccco3)c2c(=O)n1CC=C
inactive

Field: outcome | Entry: CC(CC(=O)N1CCN(c2ccccc2)CC1)c1ccccc1 (stereo unspecified)
inactive

***
Field: outcome | Entry: NS(=O)(=O)c1ccc(CNC(=O)c2cnccn2)cc1
inactive

---

- SYSTEM: Solute carrier family 12 member 5 (Homo sapiens)
- PROTOCOL: modulation of human KCC2 ion transport – cell-based, HEK293 KCC2, FluoZin-2 fluorescence, MLSMR, primary screen (AID 1456);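 also: slope of fluorescence scaled to starting intensity during 10 to 20 s after thallium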
- MEASUREMENT_CONDITIONS: KCC2 cells, thallium flux FluoZin-2 fluorescence; at 10 µM
The whole screen tested about 190,000 compounds, of which about 4,100 (2.2%) were called active.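 The calls were made as follows: active = thallium flux slope and its plate-corrected score both differing from the plate sample mean at a set confidence after two filtering rounds, in either direction; inactive = the rest.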 The sample as a whole holds a higher share of actives than the screen did.
Choose one outcome from this list and give only that: TRUE (active), FALSE (inactive)

Use these answered entries as a reference point.
Field: outcome | Entry: Cc1cc(Nc2ccc(Cl)cc2)nc(N2CCOCC2)n1
FALSE

Field: outcome | Entry: O=C(NCc1cccnc1)c1nc(-c2cccs2)no1
FALSE

Field: outcome | Entry: O=[N+]([O-])c1c(NCCO)cc(Sc2nc3ccccc3s2)c2nonc12
TRUE

Field: outcome | Entry: C=CCn1c(=S)[nH]c2nc3c(cc2c1=O)COC(C)(C)C3
TRUE

Field: outcome | Entry: Cc1nnc(SC(C(=O)Nc2cc(Cl)cc(Cl)c2)c2ccccc2)[nH]c1=O (centres undefined)
TRUE

Field: outcome | Entry: O=C(CSCc1ccccc1)N1CCc2ccccc21
TRUE

// switching to the query compound
Field: outcome | Entry: S=C(NCCc1ccccc1)Nc1ccccc1
FALSE

---

- SYSTEM: Solute carrier family 12 member 5 (Homo sapiens)
- PROTOCOL: modulation of human KCC2 ion transport – cell-based, HEK293 KCC2, FluoZin-2 fluorescence, MLSMR, primary screen (AID 1456);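 also: slope of fluorescence scaled to starting intensity during 10 to 20 s after thallium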
- MEASUREMENT_CONDITIONS: KCC2 cells, thallium flux FluoZin-2 fluorescence; at 10 µM
Hit rate of the full screen: of about 190,000 compounds, about 4,100 (2.2%) were called active. The entries come from a sample that favours actives as a whole.
Assign true to entries whose B-score of Tl+ flux slope (higher = more flux/activation; lower = inhibition) meets or exceeds 0.09; assign false to the rest.

Use these answered entries as a reference point.
Determine whether this molecule has B-score of Tl+ flux slope (higher = more flux/activation; lower = inhibition) no lower than 0.09: CCCNc1ncnc2sc(C)c(C)c12
false

Determine whether this molecule has B-score of Tl+ flux slope (higher = more flux/activation; lower = inhibition) no lower than 0.09: CCN(CC)CCCSc1nc2ccccc2s1
false

Determine whether this molecule has B-score of Tl+ flux slope (higher = more flux/activation; lower = inhibition) no lower than 0.09: CSc1ncnc2sc(C)c(C)c12
true

***
Determine whether this molecule has B-score of Tl+ flux slope (higher = more flux/activation; lower = inhibition) no lower than 0.09: CN(c1ccccc1)S(=O)(=O)c1ccc(Cl)c(C(=O)OCC(=O)NCc2ccco2)c1
false

Determine whether this molecule has B-score of Tl+ flux slope (higher = more flux/activation; lower = inhibition) no lower than 0.09: COC(=O)c1c(-c2cccs2)csc1NC(=O)CSc1ncnc2sc(C)c(C)c12
true
